# System: SF-539
# experiment_notes: NCI60 one-dose screen
# Format: cell-based
# study_conditions: Homo sapiens; SF-539, 10 μM, one-dose; read-out: Growth percent
The label is T for activity at 10 µM below -90% and F for activity at 10 µM equal to or exceeding -90%.

Worked set:
# compound, class_assignment
records = [
    ("CC[C@]12C=CCN3CC[C@@]4(c5ccc(OC)cc5N(C)[C@H]4[C@@](O)(C(=O)OC)[C@@H]1OC(=O)CCC[P+](c1cc(C)c(OC)c(C)c1)(c1cc(C)c(OC)c(C)c1)c1cc(C)c(OC)c(C)c1)[C@@H]32", "T"),
    ("CC[C@]12C=CCN3CC[C@@]4(c5ccc(OC)cc5N(C)[C@H]4[C@@](O)(C(=O)OC)[C@@H]1OC(=O)CCC[P+](c1ccc(OC)cc1)(c1ccc(OC)cc1)c1ccc(OC)cc1)[C@@H]32", "T"),
    ("CC[C@]12C=CCN3CC[C@@]4(c5ccc(OC)cc5N(C)[C@H]4[C@@](O)(C(=O)OC)[C@@H]1OC(=O)CCC[P+](c1ccccc1)(c1ccccc1)c1ccccc1)[C@@H]32 [compound 3, reference compound]", "F"),
]

Attention now turns to another entry.
Confirm or reject: activity at 10 µM of CC[C@]12C=CCN3CC[C@@]4(c5ccc(OC)cc5N(C)[C@H]4[C@@](O)(C(=O)OC)[C@@H]1OC(=O)CCCC[P+](c1ccc(F)cc1)(c1ccc(F)cc1)c1ccc(F)cc1)[C@@H]32 [10c] lies strictly below -90%
F

* * *

# Tested on: SNB-19
# experiment_notes: NCI60 one-dose screen
# Assay type: cell-based
# study_conditions: Homo sapiens, SNB-19, read-out: Growth percent
attribute_measured: activity at 10 µM (%)
Number only, in %; omit the unit.

# annotated cases, reported activity at 10 µM shown
# compound, activity at 10 µM / %
records = [
    ("CC[C@]12C=CCN3CC[C@@]4(c5ccc(OC)cc5N(C)[C@H]4[C@@](O)(C(=O)OC)[C@@H]1OC(=O)CCCC[P+](C1CCCCC1)(C1CCCCC1)C1CCCCC1)[C@@H]32 [10d]", -71.1),
    ("CCC12C=CCN3CC[C@@]4(c5ccc(OC)cc5N(C)[C@H]4[C@@](O)(C(=O)OC)[C@@H]1OC(C)=O)[C@@H]32 (stereo partly drawn) [compound 2, vindoline]", 96.6),
    ("CCC12C=CCN3CCC4(c5ccc(OC)cc5N(C)C4C(O)(C(=O)OC)C1OC(=O)CCC[P+](c1ccc(C)cc1)(c1ccc(C)cc1)c1ccc(C)cc1)C32 (stereo not drawn) [9a]", -97.3),
    ("CC[C@]12C=CCN3CC[C@@]4(c5ccc(OC)cc5N(C)[C@H]4[C@@](O)(C(=O)OC)[C@@H]1OC(=O)CCCC[P+](c1ccc(OC)cc1)(c1ccc(OC)cc1)c1ccc(OC)cc1)[C@@H]32 [10b]", -95.7),
    ("CC[C@]12C=CCN3CC[C@@]4(c5ccc(OC)cc5N(C)[C@H]4[C@@](O)(C(=O)OC)[C@@H]1OC(=O)CCCC[P+](c1ccc(C)cc1)(c1ccc(C)cc1)c1ccc(C)cc1)[C@@H]32 [10a]", -96.5),
    ("CC[C@]12C=CCN3CC[C@@]4(c5ccc(OC)cc5N(C)[C@H]4[C@@](O)(C(=O)OC)[C@@H]1OC(=O)CCC[P+](C1CCCCC1)(C1CCCCC1)C1CCCCC1)[C@@H]32 [9d]", -60),
]

State the recorded activity at 10 µM for this entry: CC[C@]12C=CCN3CC[C@@]4(c5ccc(OC)cc5N(C)[C@H]4[C@@](O)(C(=O)OC)[C@@H]1OC(=O)CCC[P+](c1ccccc1)(c1ccccc1)c1ccccc1OC)[C@@H]32 [9f]
-95.2

Try CC[C@]12C=CCN3CC[C@@]4(c5ccc(OC)cc5N(C)[C@H]4[C@@](O)(C(=O)OC)[C@@H]1OC(=O)CCC[P+](c1ccc(F)cc1)(c1ccc(F)cc1)c1ccc(F)cc1)[C@@H]32 [9c] next.
13.8

Same for CC[C@]12C=CCN3CC[C@@]4(c5ccc(OC)cc5N(C)[C@H]4[C@@](O)(C(=O)OC)[C@@H]1OC(=O)CCCC[P+](c1ccccc1)(c1ccccc1)c1ccccc1)[C@@H]32 [compound 4, reference compound]
12.7

* * *

# System: MDA-MB-468
# experiment_notes: NCI60 five-dose screen
# Format: cell-based
# study_conditions: Homo sapiens, MDA-MB-468
Define the label as met when GI50 is strictly less than 300 nM and as not met in all remaining cases.

# compound, class_assignment
rows = [
    ("CC[C@]12C=CCN3CC[C@@]4(c5ccc(OC)cc5N(C)[C@H]4[C@@](O)(C(=O)OC)[C@@H]1OC(=O)CCCC[P+](c1ccc(C)cc1)(c1ccc(C)cc1)c1ccc(C)cc1)[C@@H]32 [10a]", "met"),
    ("CC[C@]12C=CCN3CC[C@@]4(c5ccc(OC)cc5N(C)[C@H]4[C@@](O)(C(=O)OC)[C@@H]1OC(=O)CCCC[P+](C1CCCCC1)(C1CCCCC1)C1CCCCC1)[C@@H]32 [10d]", "not met"),
    ("CCC12C=CCN3CCC4(c5ccc(OC)cc5N(C)C4C(O)(C(=O)OC)C1OC(=O)CCC[P+](c1ccc(C)cc1)(c1ccc(C)cc1)c1ccc(C)cc1)C32 (centres unmarked) [9a]", "met"),
    ("CC[C@]12C=CCN3CC[C@@]4(c5ccc(OC)cc5N(C)[C@H]4[C@@](O)(C(=O)OC)[C@@H]1OC(=O)CCCC[P+](c1ccccc1)(c1ccccc1)c1ccccc1)[C@@H]32 [compound 4, reference compound]", "met"),
]

API: the following record is the query input.
Is the reported GI50 for CC[C@]12C=CCN3CC[C@@]4(c5ccc(OC)cc5N(C)[C@H]4[C@@](O)(C(=O)OC)[C@@H]1OC(=O)CCC[P+](C1CCCCC1)(C1CCCCC1)C1CCCCC1)[C@@H]32 [9d] strictly below 300 nM?
not met

* * *

# System: OVCAR-8
# experiment_notes: NCI60 one-dose screen
# Assay type: cell-based
# study_conditions: Homo sapiens; OVCAR-8, 10 μM, one-dose; read-out: Growth percent
Reported activity at 10 µM values follow for various compounds
The answer is to be given in %; state only the numeric part.

Some compounds with known activity at 10 µM results, for comparison:
# compound, study_system, experimental_value
records = [
    ("CC[C@]12C=CCN3CC[C@@]4(c5ccc(OC)cc5N(C)[C@H]4[C@@](O)(C(=O)OC)[C@@H]1OC(=O)CCC[P+](c1ccccc1)(c1ccccc1)c1ccccc1)[C@@H]32 [compound 3, reference compound]", "OVCAR-8", 3.13),
    ("CC[C@]12C=CCN3CC[C@@]4(c5ccc(OC)cc5N(C)[C@H]4[C@@](O)(C(=O)OC)[C@@H]1OC(=O)CCC[P+](c1cc(C)c(OC)c(C)c1)(c1cc(C)c(OC)c(C)c1)c1cc(C)c(OC)c(C)c1)[C@@H]32 [9e]", "OVCAR-8", -95.5),
    ("CC[C@]12C=CCN3CC[C@@]4(c5ccc(OC)cc5N(C)[C@H]4[C@@](O)(C(=O)OC)[C@@H]1OC(=O)CCCC[P+](c1ccc(F)cc1)(c1ccc(F)cc1)c1ccc(F)cc1)[C@@H]32 [10c]", "OVCAR-8", 20),
    ("CCC12C=CCN3CCC4(c5ccc(OC)cc5N(C)C4C(O)(C(=O)OC)C1OC(=O)c1ccc(C[P+](c4ccccc4)(c4ccccc4)c4ccccc4)cc1)C32 (centres unmarked) [compound 12]", "OVCAR-8", -18.5),
]

Now for a further compound.
Value lookup for activity at 10 µM; key = CC[C@]12C=CCN3CC[C@@]4(c5ccc(OC)cc5N(C)[C@H]4[C@@](O)(C(=O)OC)[C@@H]1OC(=O)CCC[P+](c1ccc(OC)cc1)(c1ccc(OC)cc1)c1ccc(OC)cc1)[C@@H]32 [9b]
-86.2

* * *

GI50: recorded values
# Test system: HCT-15
# experiment_notes: NCI60 five-dose screen
# Type: cell-based
# study_conditions: Homo sapiens, HCT-15
Give the value in µM but do not write µM after it.

As a guide, the following entries are already answered.
# compound, experimental_value
rows = [
    ("CC[C@]12C=CCN3CC[C@@]4(c5ccc(OC)cc5N(C)[C@H]4[C@@](O)(C(=O)OC)[C@@H]1OC(=O)CCCC[P+](c1ccc(C)cc1)(c1ccc(C)cc1)c1ccc(C)cc1)[C@@H]32 [10a]", 2.17),
    ("CC[C@]12C=CCN3CC[C@@]4(c5ccc(OC)cc5N(C)[C@H]4[C@@](O)(C(=O)OC)[C@@H]1OC(=O)CCC[P+](c1ccccc1)(c1ccccc1)c1ccccc1OC)[C@@H]32", 9.07),
    ("CC[C@]12C=CCN3CC[C@@]4(c5ccc(OC)cc5N(C)[C@H]4[C@@](O)(C(=O)OC)[C@@H]1OC(=O)CCC[P+](C1CCCCC1)(C1CCCCC1)C1CCCCC1)[C@@H]32", 15.3),
]

Lab note: next compound to report on.
Sample CCC12C=CCN3CCC4(c5ccc(OC)cc5N(C)C4C(O)(C(=O)OC)C1OC(=O)CCC[P+](c1ccc(C)cc1)(c1ccc(C)cc1)c1ccc(C)cc1)C32 (centres unmarked) — what was its GI50?
1.62
